target: AxCT mask27 EGFR EH104 L062 version 1
Metric: Percent cleavage

Query :: What value of measured Percent cleavage is listed for MMP-1 (protein) FVLTEGNPRWEQTHLTYRIENYTPDLPRADVDHAIEKAFQLWSNVTPLTFTKVSEGQADIMISFVRGDHRDNSPFDGPGGNLAHAFQPGPGIGGDAHFDEDERWTNNFREYNLHRVAAHELGHSLGLSHSTDIGALMYPSYTFSGDVQLAQDDIDGIQAIYGRSQNPVQPIGPQTPKACDSKLTFDAITTIRGEVMFFKDRFYMRTNPFYPEVELNFISVFWPQLPNGLEAAYEFADRDEVRFFKGNKYWAVQGQNVLHGYPKDIYSSFGFPRTVKHIDAALSEENTGKTYFFVANKYWRYDEYKRSMDPGYPKMIAHDFPGIGHKVDAVFMKDGFFYFFHGTRQYKFDPKTKRILTLQKANSWFNCRKN ?
Result :: 0%
